Ref: the C3SDB collision cross section collection

assay_context: [M+Na]+; instrument: DT; stepped-field
measured_endpoint: collision cross section (N2) (Å²)
Field: numeric (Å²). Do not append units.

{"columns": ["compound", "collision cross section (N2) / Å²"],
 "data": [
  ["C[n+]1cccc(C(=O)[O-])c1", 139.87],
  ["OC[C@H]1O[C@@H](O[C@H]2[C@H](O)[C@@H](O)[C@H](O)O[C@@H]2CO)[C@H](O)[C@@H](O)[C@@H]1O", 178.66],
  ["O=P(O)(O)OC[C@H]1OC(O)[C@H](O)[C@@H]1O (stereo partly drawn) [D-Ribose 5-Phosphate]", 155.8],
  ["CP(=O)(O)CCC(N)C(=O)O (stereo unspecified) [Glufosinate]", 142.7],
  ["O=P(O)(O)OC[C@H]1O[C@H](O[C@H]2O[C@H](CO)[C@@H](O)[C@H](O)[C@H]2O)[C@H](O)[C@@H](O)[C@@H]1O [Trehalose 6-Phosphate]", 192.43]
]}

Request: I have this compound here, `CSc1nnc(C(C)(C)C)c(=O)n1N` , and I need its recorded collision cross section (N2).
Result: 171.27

Request: I have this compound here, Nc1nc(=O)c2ncn([C@H]3C[C@H](O)[C@@H](COP(=O)(O)O)O3)c2[nH]1 [2'-Deoxyguanosine 5'-Monophosphate] , and I need its recorded collision cross section (N2).
Result: 173.87

Request: I have this compound here, `C[C@H]1O[C@@H](n2cnc3c(N)ncnc32)[C@H](O)[C@@H]1O` , and I need its recorded collision cross section (N2).
Result: 171.99

Request: I have this compound here, `CCCCC/C=C\C/C=C\C/C=C\CCCCCCC(=O)O` , and I need its recorded collision cross section (N2).
Result: 183.38

Request: I have this compound here, `CCCCC/C=C\C[C@H]1O[C@H]1C/C=C\C/C=C\CCCC(=O)O` , and I need its recorded collision cross section (N2).
Result: 187.87

Request: I have this compound here, `Cn1cncc1C[C@H](NC(=O)CCN)C(=O)O` , and I need its recorded collision cross section (N2).
Result: 159.77

Request: I have this compound here, `Cc1ncc(CO)c(CN)c1O` , and I need its recorded collision cross section (N2).
Result: 148.49

Request: I have this compound here, CO[C@@H]1O[C@H](CO)[C@H](O)[C@H](O)[C@H]1O [Methyl beta-D-galactoside] , and I need its recorded collision cross section (N2).
Result: 149.97

* * *

Overview of reported collision cross section (N2) across a group of compounds:
assay_context: [M+H]+; instrument: DT; single field
Field: numeric (Å²). Do not append units.

Known results for compounds:
{"columns": ["compound", "unit_annotation", "collision cross section (N2)"],
 "data": [
  ["CCCCCCCCCCCCC=CC[C@@H](O)[C@H](COP(=O)([O-])OCC[N+](C)(C)C)NC(=O)CCCCCCCCCCCCC [SM(32:1)]", "Å²", 275.46],
  ["CCCCCCCCCCCCC=CC[C@@H](O)[C@H](COP(=O)([O-])OCC[N+](C)(C)C)NC(=O)CCCCCCCCCCCCCCC [SM(34:1)]", "Å²", 281.13],
  ["CCCCCCCCCCCCC=CC[C@@H](O)[C@H](COP(=O)([O-])OCC[N+](C)(C)C)NC(=O)CCCCCCCCCCCCCCCCC [SM(36:1)]", "Å²", 286.91],
  ["CCCCCCCC/C=C\\CCCCCCCCCCCC(=O)OC[C@H](COP(=O)([O-])OCC[N+](C)(C)C)OC(=O)CCCCCCCCCCCCC [PC(36:1)]", "Å²", 292.57]
]}

Note: attention shifts to another entry.
Request: I have this compound here, CCCCCCCCCCCCC=CC[C@@H](O)[C@H](COP(=O)([O-])OCC[N+](C)(C)C)NC(=O)CC=CCCCCCCCCCCCCCCCCCC [SM(40:2)] , and I need its recorded collision cross section (N2).
Result: 298.58
